QUANTITY: melting point

Some entries whose results are on file:
# MOLECULE, melting point
records = [
    ("Oc1nc2cc(F)ccc2n2c(C(F)(F)F)nnc12", "298 to 302 °C"),
    ("CC(C)C(=O)NC1CCc2c(c3cc(C(N)=O)ccc3n2Cc2cccc(F)c2)C1 (stereo not given)", "192 to 194 °C"),
    ("CC(C)(C)CC(C)(C)c1cc(-n2nc3ccc(Cl)cc3n2)c(O)c(C(C)(C)c2ccccc2)c1", "104 to 105 °C"),
    ("CCc1nn2c(-c3cccc(C(F)(F)F)c3)ccnc2c1C#N", "144 to 146 °C"),
]

Req: May I ask what melting point has been recorded for O=C1c2ccccc2C(=O)N1CCC(=O)N(c1ccccc1)c1ccccc1 ?
Resp: 140 °C

Req: Reported melting point for CCN1CC(C(=O)Nc2cnccn2)CC2c3cccc4[nH]cc(c34)CC21 (stereo not given) : what is it?
Resp: 151 to 155 °C

Req: Query (molecule): CSc1ccc(CC(=O)NC(NC(=NC#N)Nc2ccccc2C)C(C)(C)C)cc1 (stereo not given) ; field requested: melting point
Resp: 151 to 152 °C

Req: What value of melting point has been reported for the following molecule? COc1nc(C)c(N2CCCn3c2nc2c(Cl)ccc(C(OC(F)F)C(F)(F)F)c23)c(C)n1 (stereo not given)
Resp: 169 to 170 °C

Req: Param item = Cc1cc(C)cc(-c2nc3ccc(O)cc3n2Cc2ccccc2CBr)c1 ; retrieve measured melting point.
Resp: 213 °C

Req: For the molecule CCNC(=O)c1ccc(N2CCN(Cc3ccc4c(c3)NC(=O)C(C)O4)CC2)c(Cl)c1 (stereo not given) , what melting point is on record?
Resp: 239 to 243 °C

Req: Which melting point is listed for Cn1c2cc(Cl)ccc2c2oc(C(=O)Cl)cc21 ?
Resp: 154 to 156 °C

Req: Data request, read-out melting point, for N#Cc1ccc(N2CCC(F)(F)C2)c2ccccc12
Resp: 68 to 69 °C

Req: Reported melting point for Cn1c2ccccc2c(=O)c2c(Cl)cccc21 : what is it?
Resp: 183 to 186 °C

Req: What measured melting point goes with O=S1(=O)CCC(c2cc(F)ccc2F)(S(=O)(=O)c2ccc(Cl)cc2)CC1 ?
Resp: 204 to 206 °C

Req: Look at this molecule and give its reported melting point. Cn1c(CNCC2CCOC2)cc2cc(NC(=O)c3ccc(OCC4CCOC4)cc3)ccc21 (stereo not given)
Resp: 131 to 133 °C

Req: Given COc1ccc(S(=O)(=O)n2c(=O)n(-c3cccc(Cl)c3)c3cc(Cl)ccc32)c(OC)c1 , state its recorded melting point.
Resp: 173 °C
